Let's look at some compounds and their measured tissue uptake at 4 h.
assay: Biodistribution of ^111In-labeled peptides in B16-F1 melanoma-bearing mice; assay type: in vivo, mouse (B6D2F1); details: female, B6D2F1, mouse, small intestines, iv, total radioactivity; ^111In-labeled peptide, 185 kBq i.v., 4 h; mean ± SEM of three experiments, n = 5 animals each; read-out: Small intestines uptake
Non-standard residues stand in square brackets, D forms with d. Residues, ends and D or L forms follow the SMILES beside them. *: point of attachment. DOTA = O=C(O)CN1CCN(CC(=O)O)CCN(CC(=O)*)CCN(CC(=O)O)CC1; pY = N[C@@H](Cc1ccc(OP(=O)(O)O)cc1)C(=O)O; Nle = CCCC[C@H](N)C(=O)O
Note: unit %ID/g is implicit; provide only the numeric part.

Compound	tissue uptake at 4 h / %ID/g
CCCC[C@H](NC(C)=O)C(=O)N[C@@H](CC(=O)O)C(=O)N[C@@H](Cc1c[nH]cn1)C(=O)N[C@H](Cc1ccccc1)C(=O)N[C@@H](CCCNC(=N)N)C(=O)N[C@@H](Cc1c[nH]c2ccccc12)C(=O)NCC(=O)N[C@@H](CCCCNC(=O)CN1CCN(CC(=O)O)CCN(CC(=O)O)CCN(CC(=O)O)CC1)C(=O)N[C@H](CC(=O)O)C(=O)N[C@H](CC(=O)O)C(=O)O [DOTA-NAP-D-Asp-D-Asp] (Ac-[Nle]DH[dF]RWGK(DOTA)[dD][dD]-OH)	0.05
CCCC[C@H](NC(=O)[C@H](Cc1ccc(OP(=O)(O)O)cc1)NC(=O)CNC(=O)CN1CCN(CC(=O)O)CCN(CC(=O)O)CCN(CC(=O)O)CC1)C(=O)N[C@@H](CC(=O)O)C(=O)N[C@@H](Cc1c[nH]cn1)C(=O)N[C@H](Cc1ccccc1)C(=O)N[C@@H](CCCNC(=N)N)C(=O)N[C@@H](Cc1c[nH]c2ccccc12)C(N)=O [DOTA-Phospho-MSH2-9] ({DOTA}-G[pY][Nle]DH[dF]RW-NH2)	0.11

State, in one line, measured tissue uptake at 4 h of CCCC[C@H](NC(C)=O)C(=O)N[C@@H](CC(=O)O)C(=O)N[C@@H](Cc1c[nH]cn1)C(=O)N[C@H](Cc1ccccc1)C(=O)N[C@@H](CCCNC(=N)N)C(=O)N[C@@H](Cc1c[nH]c2ccccc12)C(=O)NCC(=O)N[C@@H](CCCCNC(=O)CN1CCN(CC(=O)O)CCN(CC(=O)O)CCN(CC(=O)O)CC1)C(N)=O [DOTA-NAP-amide, reference compound] 0.07

---

Let's look at some compounds and their measured tissue uptake at 48 h.
experiment: Biodistribution of ^111In-labeled peptides in B16-F1 melanoma-bearing mice; type: in vivo, mouse (B6D2F1); conditions: female, B6D2F1, mouse, stomach, iv, total radioactivity; ^111In-labeled peptide, 185 kBq i.v., 48 h; mean ± SEM of three experiments, n = 5 animals each; read-out: Stomach uptake
Non-standard residues stand in square brackets, D forms with d. Residues, ends and D or L forms follow the SMILES beside them. *: point of attachment. DOTA = O=C(O)CN1CCN(CC(=O)O)CCN(CC(=O)*)CCN(CC(=O)O)CC1; pY = N[C@@H](Cc1ccc(OP(=O)(O)O)cc1)C(=O)O; Nle = CCCC[C@H](N)C(=O)O
// unit must come after the numeric part

Look over these answered cases.
Compound	tissue uptake at 48 h
CCCC[C@H](NC(=O)[C@H](Cc1ccc(OP(=O)(O)O)cc1)NC(=O)CNC(=O)CN1CCN(CC(=O)O)CCN(CC(=O)O)CCN(CC(=O)O)CC1)C(=O)N[C@@H](CC(=O)O)C(=O)N[C@@H](Cc1c[nH]cn1)C(=O)N[C@H](Cc1ccccc1)C(=O)N[C@@H](CCCNC(=N)N)C(=O)N[C@@H](Cc1c[nH]c2ccccc12)C(N)=O [DOTA-Phospho-MSH2-9] ({DOTA}-G[pY][Nle]DH[dF]RW-NH2)	0.07 %ID/g
CCCC[C@H](NC(C)=O)C(=O)N[C@@H](CC(=O)O)C(=O)N[C@@H](Cc1c[nH]cn1)C(=O)N[C@H](Cc1ccccc1)C(=O)N[C@@H](CCCNC(=N)N)C(=O)N[C@@H](Cc1c[nH]c2ccccc12)C(=O)NCC(=O)N[C@@H](CCCCNC(=O)CN1CCN(CC(=O)O)CCN(CC(=O)O)CCN(CC(=O)O)CC1)C(=O)N[C@H](CC(=O)O)C(=O)N[C@H](CC(=O)O)C(=O)O [DOTA-NAP-D-Asp-D-Asp] (Ac-[Nle]DH[dF]RWGK(DOTA)[dD][dD]-OH)	0.02 %ID/g

State, in one line, measured tissue uptake at 48 h of CCCC[C@H](NC(C)=O)C(=O)N[C@@H](CC(=O)O)C(=O)N[C@@H](Cc1c[nH]cn1)C(=O)N[C@H](Cc1ccccc1)C(=O)N[C@@H](CCCNC(=N)N)C(=O)N[C@@H](Cc1c[nH]c2ccccc12)C(=O)NCC(=O)N[C@@H](CCCCNC(=O)CN1CCN(CC(=O)O)CCN(CC(=O)O)CCN(CC(=O)O)CC1)C(N)=O [DOTA-NAP-amide, reference compound] 0.11 %ID/g

---

Let's look at some compounds and their measured tissue uptake at 48 h.
test: Biodistribution of ^111In-labeled peptides in B16-F1 melanoma-bearing mice; type: in vivo, mouse (B6D2F1); conditions: female, B6D2F1 (C57BL/6 × DBA/2F1 hybrids), mouse, tumor, iv, total radioactivity; ^111In-labeled peptide, 185 kBq i.v., 48 h; mean ± SEM of three experiments, n = 5 animals each; read-out: Tumor uptake
Non-standard residues stand in square brackets, D forms with d. Residues, ends and D or L forms follow the SMILES beside them. *: point of attachment. DOTA = O=C(O)CN1CCN(CC(=O)O)CCN(CC(=O)*)CCN(CC(=O)O)CC1; pY = N[C@@H](Cc1ccc(OP(=O)(O)O)cc1)C(=O)O; Nle = CCCC[C@H](N)C(=O)O
Note: unit %ID/g is implicit; provide only the numeric part.

Look over these answered cases.
Compound	Measurement Units	tissue uptake at 48 h
CCCC[C@H](NC(C)=O)C(=O)N[C@@H](CC(=O)O)C(=O)N[C@@H](Cc1c[nH]cn1)C(=O)N[C@H](Cc1ccccc1)C(=O)N[C@@H](CCCNC(=N)N)C(=O)N[C@@H](Cc1c[nH]c2ccccc12)C(=O)NCC(=O)N[C@@H](CCCCNC(=O)CN1CCN(CC(=O)O)CCN(CC(=O)O)CCN(CC(=O)O)CC1)C(N)=O [DOTA-NAP-amide, reference compound]	%ID/g	1.41
CCCC[C@H](NC(C)=O)C(=O)N[C@@H](CC(=O)O)C(=O)N[C@@H](Cc1c[nH]cn1)C(=O)N[C@H](Cc1ccccc1)C(=O)N[C@@H](CCCNC(=N)N)C(=O)N[C@@H](Cc1c[nH]c2ccccc12)C(=O)NCC(=O)N[C@@H](CCCCNC(=O)CN1CCN(CC(=O)O)CCN(CC(=O)O)CCN(CC(=O)O)CC1)C(=O)N[C@H](CC(=O)O)C(=O)N[C@H](CC(=O)O)C(=O)O [DOTA-NAP-D-Asp-D-Asp] (Ac-[Nle]DH[dF]RWGK(DOTA)[dD][dD]-OH)	%ID/g	0.23

State, in one line, measured tissue uptake at 48 h of CCCC[C@H](NC(=O)[C@H](Cc1ccc(OP(=O)(O)O)cc1)NC(=O)CNC(=O)CN1CCN(CC(=O)O)CCN(CC(=O)O)CCN(CC(=O)O)CC1)C(=O)N[C@@H](CC(=O)O)C(=O)N[C@@H](Cc1c[nH]cn1)C(=O)N[C@H](Cc1ccccc1)C(=O)N[C@@H](CCCNC(=N)N)C(=O)N[C@@H](Cc1c[nH]c2ccccc12)C(N)=O [DOTA-Phospho-MSH2-9] ({DOTA}-G[pY][Nle]DH[dF]RW-NH2) 1.21

---

assay: Biodistribution of ^111In-labeled peptides in B16-F1 melanoma-bearing mice; format: in vivo, mouse (B6D2F1); conditions: female, B6D2F1, mouse, heart, iv, total radioactivity; ^111In-labeled peptide, 185 kBq i.v., 48 h; mean ± SEM of three experiments, n = 5 animals each; read-out: Heart uptake
Non-standard residues stand in square brackets, D forms with d. Residues, ends and D or L forms follow the SMILES beside them. *: point of attachment. DOTA = O=C(O)CN1CCN(CC(=O)O)CCN(CC(=O)*)CCN(CC(=O)O)CC1; pY = N[C@@H](Cc1ccc(OP(=O)(O)O)cc1)C(=O)O; Nle = CCCC[C@H](N)C(=O)O
Let's look at some compounds and their measured tissue uptake at 48 h.
Note: unit %ID/g is implicit; provide only the numeric part.

Compound	Measurement Units	tissue uptake at 48 h
CCCC[C@H](NC(C)=O)C(=O)N[C@@H](CC(=O)O)C(=O)N[C@@H](Cc1c[nH]cn1)C(=O)N[C@H](Cc1ccccc1)C(=O)N[C@@H](CCCNC(=N)N)C(=O)N[C@@H](Cc1c[nH]c2ccccc12)C(=O)NCC(=O)N[C@@H](CCCCNC(=O)CN1CCN(CC(=O)O)CCN(CC(=O)O)CCN(CC(=O)O)CC1)C(N)=O [DOTA-NAP-amide, reference compound]	%ID/g	0.01

State, in one line, measured tissue uptake at 48 h of CCCC[C@H](NC(=O)[C@H](Cc1ccc(OP(=O)(O)O)cc1)NC(=O)CNC(=O)CN1CCN(CC(=O)O)CCN(CC(=O)O)CCN(CC(=O)O)CC1)C(=O)N[C@@H](CC(=O)O)C(=O)N[C@@H](Cc1c[nH]cn1)C(=O)N[C@H](Cc1ccccc1)C(=O)N[C@@H](CCCNC(=N)N)C(=O)N[C@@H](Cc1c[nH]c2ccccc12)C(N)=O [DOTA-Phospho-MSH2-9] ({DOTA}-G[pY][Nle]DH[dF]RW-NH2) 0.03

State, in one line, measured tissue uptake at 48 h of CCCC[C@H](NC(C)=O)C(=O)N[C@@H](CC(=O)O)C(=O)N[C@@H](Cc1c[nH]cn1)C(=O)N[C@H](Cc1ccccc1)C(=O)N[C@@H](CCCNC(=N)N)C(=O)N[C@@H](Cc1c[nH]c2ccccc12)C(=O)NCC(=O)N[C@@H](CCCCNC(=O)CN1CCN(CC(=O)O)CCN(CC(=O)O)CCN(CC(=O)O)CC1)C(=O)N[C@H](CC(=O)O)C(=O)N[C@H](CC(=O)O)C(=O)O [DOTA-NAP-D-Asp-D-Asp] (Ac-[Nle]DH[dF]RWGK(DOTA)[dD][dD]-OH) 0.03

All values here come from paper PMC5405074.
